The origin of these recorded values is ChEMBL document CHEMBL1145382.

Target: D(2) dopamine receptor (Homo sapiens)
Assay: Agonist activity at dopamine D2 receptor in SH-SY5Y cells assessed as inhibition of forskolin-activated intracellular cAMP production at 50 uM
Assay type: functional, cell-based
Calls of active or inactive are those of the source. The rule behind the calls is not given here.
Measurement Type: Activity

What value of Activity has been reported for the following molecule? CC(C)[C@H](NC(=O)[C@H](CCC1CCCCC1)NC(=O)[C@@H]1C=C2c3cccc4[nH]cc(c34)C[C@H]2N(C)C1)C(=O)N1CCC[C@H]1C(N)=O
Active

Could you tell me which Activity is on file for CN1C[C@H](C(=O)N[C@@H](CCC2CCCCC2)C(=O)N[C@@H](Cc2ccc(F)cc2)C(=O)N2CCC[C@H]2C(N)=O)C=C2c3cccc4[nH]cc(c34)C[C@H]21 ?
Active

I am curious: what Activity value has been reported for CC(C)[C@H](NC(=O)[C@H]1C=C2c3cccc4[nH]cc(c34)C[C@H]2N(C)C1)C(=O)N[C@@H](Cc1ccc([N+](=O)[O-])cc1)C(=O)N1CCC[C@H]1C(N)=O ?
Active
